Test system: OVCAR-4
assay-remarks: NCI tumour cell line growth inhibition, 48 h
The source made the active and inactive calls. Rule as the data show it: active = GI50 up to about 1.1 µM and inactive = higher.
measured-metric: GI50

Could you share which GI50 value was measured for CC(=O)N[C@H]1CCCC[C@@H]1OC(C)=O ?
> 100 µM (inactive)

Could you share which GI50 value was measured for Cc1nc2c(C)c3c([nH]c4ccc(Cl)cc43)c(C)c2c(O)c1C ?
7.24 µM (inactive)

Could you share which GI50 value was measured for CCN1C(=O)N(C)C(O)c2c1nc1ccccn1c2=O (stereo not given) ?
33 µM (inactive)

Could you share which GI50 value was measured for N#Cc1cnn2cc[nH]c12 ?
> 100 µM (inactive)

Could you share which GI50 value was measured for Cc1cc(Br)cc(C)c1NC(=O)C(=O)CC(=O)c1sc(-n2nc(-c3ccccc3)cc2-c2ccccc2)nc1C ?
> 100 µM (inactive)

Could you share which GI50 value was measured for CCn1c2ccccc2c2ccc3c(c21)C(=O)c1ccccc1C3=O ?
> 100 µM (inactive)

Could you share which GI50 value was measured for CCOc1ccc(/N=N/c2c(-c3ccccc3)nn(C(=O)CC(=O)Nc3ccccc3Cl)c2-c2ccccc2)cc1 ?
47.4 µM (inactive)

Could you share which GI50 value was measured for CS/C(Nc1ccccc1)=C1\C(=O)N(c2ccccc2)N=C1C ?
> 100 µM (inactive)

Could you share which GI50 value was measured for O=C1c2ccccc2-c2c1c(-c1ccc(O)cc1O)nc1ccc3ccccc3c21 ?
> 100 µM (inactive)

Could you share which GI50 value was measured for C[C@H](CCC1=NCCN1)[C@H]1CC[C@H]2[C@@H]3CC[C@@H]4C[C@H](O)CC[C@]4(C)[C@H]3C[C@H](O)[C@]12C ?
15.9 µM (inactive)

----------
Test system: Malme-3M
assay-remarks: NCI tumour cell line growth inhibition, 48 h
The source made the active and inactive calls. Cut-off read from the data, not from the text of the source: active = GI50 up to about 1.1 µM and inactive = higher.
Please go through the items and note down their GI50.

Lab note: need GI50 with Malme-3M for entry Cc1c(-c2ccccn2)ccc2ccccc12 , please look it up.
69.7 µM (inactive)

Lab note: need GI50 with Malme-3M for entry CCOC(=O)c1cc2cc(CSc3ccccc3)ccc2oc1=O , please look it up.
> 100 µM (inactive)

Lab note: need GI50 with Malme-3M for entry COCC1OCCN1C (stereo unspecified) , please look it up.
> 100 µM (inactive)

Lab note: need GI50 with Malme-3M for entry CC(=O)OCC1OC(n2c3c(cc(C#N)c2=S)CCC3)C(OC(C)=O)C(OC(C)=O)C1OC(C)=O (stereo unspecified) , please look it up.
> 100 µM (inactive)

Lab note: need GI50 with Malme-3M for entry O=C1c2c(c3c4ccccc4n4c3c3c2c2ccccc2n3C/C=C\C4)C(=O)N1Cc1ccccc1 , please look it up.
> 100 µM (inactive)

Lab note: need GI50 with Malme-3M for entry O=c1c2ccccc2c(=O)n2n1CC=CC2 , please look it up.
> 100 µM (inactive)

----------
Tested on: SF-268
assay-remarks: NCI tumour cell line growth inhibition, 48 h
Calls of active or inactive are those of the source. Cut-off read from the data, not from the text of the source: active = GI50 up to about 1.1 µM and inactive = higher.
Please go through the items and note down their GI50.

Could you share which GI50 value was measured for COC1(OC)CC2OC1C1N=NN(C(=O)OC(C)(C)C)C21 (stereo unspecified) ?
> 100 µM (inactive)

Could you share which GI50 value was measured for O=C1/C(=C/c2ccc(O)cc2)CCC1CNc1ccc(Cl)cc1 (stereo unspecified) ?
3.2 µM (inactive)

Could you share which GI50 value was measured for O=[N+]([O-])c1nccn1CCCNc1c2ccccc2[n+]([O-])c2ccccc12 ?
> 100 µM (inactive)

Could you share which GI50 value was measured for CCOC(=O)C1=C(C)N(NC(=O)Nc2ccccc2)C2(N)N(NC(=O)Nc3ccccc3)C(C)=C(C(=O)OCC)C12C(=O)OCC (stereo unspecified) ?
24.8 µM (inactive)

Could you share which GI50 value was measured for NC1CSc2ccccc2NC1=O (stereo unspecified) ?
> 100 µM (inactive)

Could you share which GI50 value was measured for COc1cc(/C=C/c2cccnc2)cc(OC)c1OC ?
> 100 µM (inactive)

Could you share which GI50 value was measured for O=C(CC1C=CCS1(=O)=O)NCc1ccccc1 (stereo unspecified) ?
> 100 µM (inactive)

Could you share which GI50 value was measured for CCc1cccc(C)c1NC(=S)NC(=O)c1ccccc1C(=O)NC(=S)Nc1c(C)cccc1CC ?
> 100 µM (inactive)

Could you share which GI50 value was measured for CC(C)CCCC(C)[C@H]1CCC2[C@H]3C(CC[C@@]21C)[C@@]1(C)CCC=C[C@]12C[C@@H]2[C@@H]3O (stereo partly specified) ?
> 100 µM (inactive)

Could you share which GI50 value was measured for O=C1c2ccccc2-c2c1c(-c1ccc(O)cc1O)nc1ccc3ccccc3c21 ?
> 100 µM (inactive)

Could you share which GI50 value was measured for CNC1=Nc2ccccc2C(=S)N2CSC[C@@H]12 ?
> 100 µM (inactive)

----------
Tested on: HL-60
assay-remarks: NCI tumour cell line growth inhibition, 48 h
The source made the active and inactive calls. Rule as the data show it: active = GI50 up to about 1.1 µM and inactive = higher.
measured-metric: GI50

Could you share which GI50 value was measured for O=C(O)C(Cc1c[nH]c2ccccc12)C(=O)NO (stereo not given) ?
53.7 µM (inactive)

Could you share which GI50 value was measured for Cn1c(=O)c2c(nc3n2CC(C(=O)O)N3)n(C)c1=O (stereo not given) ?
> 100 µM (inactive)

Could you share which GI50 value was measured for Cc1cccc2cc3cccc(C(=O)NCCN(C)C)c3nc12 ?
0.028 µM (active)

Could you share which GI50 value was measured for O=c1[nH]c(=O)n(C2CC(O)C(CO)O2)cc1/N=N/NCCc1ccccc1 (stereo not given) ?
> 100 µM (inactive)

Could you share which GI50 value was measured for O=C1CC2CC3OC3[C@H]3c4cc5c(cc4C(=O)N1C23)OCO5 (stereo not given in full) ?
> 100 µM (inactive)

Could you share which GI50 value was measured for CC(C)C(Br)CC/C(CBr)=C(\Cl)CCl (stereo not given) ?
0.585 µM (active)

Could you share which GI50 value was measured for Nc1nc2c3nc(Nc4ccccc4)sc3nc(=O)n2c2sc(Nc3ccccc3)nc12 ?
> 100 µM (inactive)

Could you share which GI50 value was measured for CC(=O)Nc1ccc(/C=c2\sc3nnc(/C=C/c4ccccc4)n3c2=O)cc1 ?
> 50 µM (inactive)

Could you share which GI50 value was measured for O=C(O)C1=C(O)C(C(=O)O)C23CCCCCCCCCCC12C(C(=O)O)C(O)=C3C(=O)O (stereo not given) ?
> 100 µM (inactive)

Could you share which GI50 value was measured for CC(=O)OCC(=O)[C@@]12OC(C)(C)O[C@@H]1C[C@H]1[C@@H]3CC(C=O)=C4C=C(OCCCl)CC[C@]4(C)[C@@]3(F)[C@@H](O)C[C@@]12C ?
15.9 µM (inactive)

----------
Test system: NCI-H460
assay-remarks: NCI tumour cell line growth inhibition, 48 h
The source made the active and inactive calls. Cut-off read from the data, not from the text of the source: active = GI50 up to about 1.1 µM and inactive = higher.
Please go through the items and note down their GI50.

Could you share which GI50 value was measured for COc1cc(C2CC(C)(O)Oc3cc4c(cc32)OCO4)cc(OC)c1OC (configuration not stated) ?
0.389 µM (active)

Could you share which GI50 value was measured for Fc1cc(C2=Nn3c(COc4ccccc4Cl)nnc3S/C2=C\c2ccc(Cl)cc2)c(Cl)cc1Cl ?
3.38 µM (inactive)

Could you share which GI50 value was measured for CN(C)CCNC(=O)c1cccc(CO)c1[N+](=O)[O-] ?
> 100 µM (inactive)

Could you share which GI50 value was measured for COc1cccc(C[C@H]2COC(=O)[C@]2(O)Cc2cccc(OC)c2)c1 ?
48.2 µM (inactive)

Could you share which GI50 value was measured for CCN(CC)CCNc1nc2ccc([N+](=O)[O-])cc2[n+]([O-])n1 ?
10.4 µM (inactive)

Could you share which GI50 value was measured for CC1=NN(c2ccc(S(=O)(=O)O)cc2)C(=O)/C1=C/c1ccc(Cl)cc1.c1ccncc1 ?
> 100 µM (inactive)

Could you share which GI50 value was measured for O=C1NCN(c2ccccc2)C12CCN(CCCN1CCN(CCOC(c3ccccc3)c3ccccc3)CC1)CC2 ?
3.84 µM (inactive)

Could you share which GI50 value was measured for COc1ccc2/c(=C/c3ccc(N(C)C)cc3)c3cc(-c4ccccc4)[n+](C)n3c2c1 ?
0.245 µM (active)

Could you share which GI50 value was measured for COC(=O)C1=C(C)N(NC(=O)c2ccccc2)C(C)(O)C12CCOC2=O (configuration not stated) ?
> 100 µM (inactive)

Could you share which GI50 value was measured for N=C(N)NCCCC(NC(=O)c1c2ccccc2nc2ccccc12)C(=O)O (configuration not stated) ?
> 100 µM (inactive)

Could you share which GI50 value was measured for COC1C(O)=C2C(=O)OC(C)(O)/C=C/C=C\C=C/C=C/C(c3ccccc3)NC(=O)/C=C/C=C/C=C/C=C/C2(C)C1O (configuration not stated) ?
< 0.001 µM (active)

Could you share which GI50 value was measured for CCc1nc(N)c2nc(-c3cccs3)oc2n1 ?
24.3 µM (inactive)

Could you share which GI50 value was measured for Oc1cc(-c2ccccc2Cl)nc2cc3c(cc12)OCO3 ?
0.0719 µM (active)

Could you share which GI50 value was measured for CCOC(=O)/C(C#N)=C(O)/C(=C/c1ccccc1Cl)NC(=O)c1ccccc1 ?
> 100 µM (inactive)

Could you share which GI50 value was measured for CC(SC(=S)N1CCCCC1)C(=O)Nc1nnc(-c2ccc(Cl)cc2)o1 (configuration not stated) ?
27.2 µM (inactive)

Could you share which GI50 value was measured for CCOP(=O)(OCC)C(C)(CC)NC (configuration not stated) ?
> 100 µM (inactive)

Could you share which GI50 value was measured for O=[N+]([O-])c1ccc(O)c(/C=N/NC(=S)N2CCCCC2)c1 ?
4.81 µM (inactive)

Could you share which GI50 value was measured for N#Cc1cnn2cc[nH]c12 ?
> 100 µM (inactive)

Could you share which GI50 value was measured for Cc1ccc([N+](=O)[O-])cc1NC1=NCCO1 ?
> 100 µM (inactive)

Could you share which GI50 value was measured for Nc1nc(Nc2ccccc2)sc1C(=O)c1ccco1 ?
12.8 µM (inactive)

Could you share which GI50 value was measured for Clc1cccc(C2SCc3nc4ccccc4n32)c1Cl (configuration not stated) ?
18.5 µM (inactive)

Could you share which GI50 value was measured for CCOC(=O)C1C(=O)C(C(=O)OCC)C(c2ccccc2)N(C)C1c1ccccc1 (configuration not stated) ?
> 100 µM (inactive)
